Tested On: strychnine-insensitive glycine receptors (Rattus norvegicus, UniProt P35439)
Construct: Brains are immediately removed and forebrains dissected; from tissue; host or cells: rat forebrain membranes (P2/P3 pellet, washed, frozen), male Sprague-Dawley
Procedure Summary: biochemical
Assay type: binding
Run Conditions: IC50, inhibition of [3H]5,7DCKA, 10 uM-10 mM; combined data of three experiments on a single graph, FIG. 2
Measured Parameter: pIC50
# reply with the number alone; pIC50 is -log10 of concentration in mol/L

Record NC(=O)OCC(COC(N)=O)c1ccccc1 [felbamate, 2-phenyl-1,3-propanediol dicarbamate] . Reported pIC50: 3.43

###

Tested On: strychnine-insensitive glycine receptors (Rattus norvegicus)
Construct: Brains are immediately removed and forebrains dissected; from tissue; host or cells: rat forebrain membranes (P2/P3 pellet, washed, frozen), male Sprague-Dawley
Procedure Summary: biochemical
Type: binding
Run Conditions: K estimate for inhibition of [3H]5,7DCKA, calculated from IC50 of combined data
Measured Parameter: Ki
The reply should consist of the numeric value with the unit placed after it.

Record NC(=O)OCC(COC(N)=O)c1ccccc1 [felbamate, 2-phenyl-1,3-propanediol dicarbamate] . Reported Ki: 289 µM

###

Tested On: strychnine-insensitive glycine receptors (Rattus norvegicus, UniProt P35439)
Construct: Brains are immediately removed and forebrains dissected; from tissue; host or cells: rat forebrain membranes (P2/P3 pellet, washed, frozen), male Sprague-Dawley
Procedure Summary: biochemical
Type: binding
Run Conditions: K estimate for inhibition of [3H]5,7DCKA (mean +/- SEM), calculated; mean of experiments, FIG. 2
Measured Parameter: pKi
# reply with the number alone; pKi is -log10 of concentration in mol/L

Record NC(=O)OCC(COC(N)=O)c1ccccc1 [felbamate, 2-phenyl-1,3-propanediol dicarbamate] . Reported pKi: 3.43

###

Tested On: strychnine-insensitive glycine receptors (Rattus norvegicus, UniProt P35439)
Construct: Brains are immediately removed and forebrains dissected; from tissue; host or cells: rat forebrain membranes (P2/P3 pellet, washed, frozen), male Sprague-Dawley
Procedure Summary: biochemical
Assay type: binding
Run Conditions: IC50 value (mean +/- SEM), mean of the felbamate displacement experiments
Measured Parameter: IC50 (µM)
Answer in µM, number only, no unit symbol.

Record NC(=O)OCC(COC(N)=O)c1ccccc1 [felbamate, 2-phenyl-1,3-propanediol dicarbamate] . Reported IC50: 477
